- Test system: MCF7
- measurement.description: Inhibition of cell proliferation, MCF7
- Assay type: cell-based
- condition.context: Homo sapiens, Breast, 72 h, methylene blue or CellTiter-Glo
pIC50: −log10 of the molar value.
readout.name: pIC50

Q: Using the record for C[C@@H](Oc1cc(-n2cnc3cc(-c4cnn(C)c4)ccc32)sc1C(N)=O)c1cccc(OC2CCN(C)CC2)c1Cl , report its pIC50.
A: > 6.30

# evaluate next
Q: Using the record for C[C@@H](Oc1cc(-n2cnc3cc(-c4cnn(C)c4)ccc32)sc1C(N)=O)c1cccc(OC2CCN(CCS(C)(=O)=O)CC2)c1Cl , report its pIC50.
A: > 6.30
